# subject-of-test: PfFNT wt-GFP (Plasmodium falciparum, UniProt O77389)
# Construct: The DNA of full-length PfFNT from Plasmodium falciparum 3D7 was cloned as a C-terminal GFP fusion; expressed in transfected cells; intact cells for imaging, LMNG-solubilized membranes or lysates for FCCS
# Sequence (O77389 whole entry, the tested form may be a part): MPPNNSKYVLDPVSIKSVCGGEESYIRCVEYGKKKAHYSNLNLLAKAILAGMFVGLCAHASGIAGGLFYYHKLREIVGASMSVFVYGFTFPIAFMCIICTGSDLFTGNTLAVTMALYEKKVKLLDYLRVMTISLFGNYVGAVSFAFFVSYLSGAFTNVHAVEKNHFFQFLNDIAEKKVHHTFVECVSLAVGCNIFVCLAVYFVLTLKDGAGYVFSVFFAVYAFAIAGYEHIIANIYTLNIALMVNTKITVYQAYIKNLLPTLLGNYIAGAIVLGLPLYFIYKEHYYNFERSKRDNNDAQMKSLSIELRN
# assay-procedure: FCCS equilibrium saturation binding to solubilized PfFNT wildtype
# measurement-context: fluorescent probe titrated against 10 nM PfFNT-GFP, 1% LMNG, 1 h ambient temperature; read-out: KD (equilibrium saturation binding)
readout-name: Kd (µM)
Form entry: value (µM) — number only.

# value of Kd, PfFNT wt-GFP (Plasmodium falciparum, UniProt O77389), item O=C(/C=C(\O)C(F)(F)C(F)(F)F)c1cccnc1 [BH267.meta] = 0.072

----------
# subject-of-test: PfFNT wt-GFP (Plasmodium falciparum, UniProt O77389)
# Construct: The DNA of full-length PfFNT from Plasmodium falciparum 3D7 was cloned as a C-terminal GFP fusion; expressed in transfected cells; intact cells for imaging, LMNG-solubilized membranes or lysates for FCCS
# assay-procedure: FCCS equilibrium competition binding, PfFNT wildtype
# measurement-context: Ki Competitor, fluorescent probe BH296-DY647 70 nM, 10 nM PfFNT-GFP, Cheng Prusoff
readout-name: Ki (nM)
Kindly provide the numeric value in nM only, without the unit symbol.

The reported value for `O=C(C=C(O)C(F)(F)C(F)(F)F)c1ccc(O)cc1` in terms of Ki is 48

----------
# subject-of-test: PfFNT G107S-GFP (Plasmodium falciparum, UniProt O77389, G107S)
# Construct: The DNA of full-length PfFNT from Plasmodium falciparum 3D7 was cloned as a C-terminal GFP fusion; expressed in transfected cells; intact cells for imaging, LMNG-solubilized membranes for FCCS
# Sequence (O77389 whole entry G107S, the tested form may be a part): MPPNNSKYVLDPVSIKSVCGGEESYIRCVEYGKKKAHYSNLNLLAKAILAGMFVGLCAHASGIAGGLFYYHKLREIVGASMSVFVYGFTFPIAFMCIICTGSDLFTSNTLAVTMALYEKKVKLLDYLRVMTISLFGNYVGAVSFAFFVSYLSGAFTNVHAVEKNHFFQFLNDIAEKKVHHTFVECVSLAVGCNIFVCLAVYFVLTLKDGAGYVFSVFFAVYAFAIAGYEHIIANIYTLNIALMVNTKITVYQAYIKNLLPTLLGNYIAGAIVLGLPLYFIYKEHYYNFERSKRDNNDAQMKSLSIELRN
# assay-procedure: FCCS equilibrium saturation binding to solubilized PfFNT G107S mutant
# measurement-context: fluorescent probe titrated against solubilized PfFNT G107S-GFP; read-out: KD (equilibrium saturation binding)
# Method: Next, we determined inhibitor binding affinities for both PfFNT and its G107S mutant. […] Equilibrium binding experiments were pipetted in biological triplicates and carried out and analyzed as described in Antoine et al.. […] FCCS measurements were conducted in 384-well glass-bottom plates (cat. no PS96B-G175, SWISSCI, Switzerland) using an Insight plate reader (Evotec Technologies, Germany) fitted with a U-Apo300 40x water immersion lens, NA 1.15 (Olympus, Japan). […]
readout-name: Kd
Your reply should be a number followed by the unit it is expressed in.

Kd value, target or system PfFNT G107S-GFP (Plasmodium falciparum, UniProt O77389, G107S), for `O=C(/C=C(\O)C(F)(F)C(F)(F)F)c1cccnc1` : 405 nM

----------
# subject-of-test: PfFNT wt-GFP (Plasmodium falciparum, UniProt O77389)
# Construct: The DNA of full-length PfFNT from Plasmodium falciparum 3D7 was cloned as a C-terminal GFP fusion; expressed in transfected cells; intact cells for imaging, LMNG-solubilized membranes or lysates for FCCS
# assay-procedure: Time-resolved FCCS binding kinetics
readout-name: pKd
Quick note: pKd values are minus log10 of concentrations in mol/L.

Some molecules with recorded pKd:
O=C(C=C(O)C(F)(F)C(F)(F)F)c1ccc(O)cc1 : 6.95
CCN1/C(=C/C=C/C=C/C2=[N+](CC)c3ccc(S(=O)(=O)O)cc3C2(C)CCCC(=O)NCCOCCOCCOCCOCCC(=O)NCCCOc2ccc(C(=O)/C=C(\O)C(F)(F)C(F)(F)F)cc2)C(C)(C)c2cc(S(=O)(=O)[O-])ccc21 (stereo not drawn) : 6.95

Let us examine a further case.
The measured pKd associated with CCN1/C(=C/C=C/C=C/C2=[N+](CC)c3ccc(S(=O)(=O)O)cc3C2(C)CCCC(=O)NCCOCCOCCOCCOCCC(=O)NCCCOc2ccc(C(=O)/C=C(\O)C(F)(F)C(F)(F)F)cn2)C(C)(C)c2cc(S(=O)(=O)[O-])ccc21 (stereo not drawn) reads 6.95

----------
# subject-of-test: PfFNT wt-GFP (Plasmodium falciparum, UniProt O77389)
# Construct: The DNA of full-length PfFNT from Plasmodium falciparum 3D7 was cloned as a C-terminal GFP fusion; expressed in transfected cells; intact cells for imaging, LMNG-solubilized membranes or lysates for FCCS
# assay-procedure: FCCS equilibrium competition binding, PfFNT wildtype
# measurement-context: Ki Competitor, fluorescent probe BH267.meta-DY647 70 nM, 1 h room temperature, Cheng Prusoff
readout-name: Ki (nM)
Dear colleague, please return just the value in nM, with no unit written.

The reported value for `O=C(C=C(O)C(F)(F)C(F)(F)F)c1ccc(O)cc1` in terms of Ki is 47

----------
# subject-of-test: PfFNT wt-GFP (Plasmodium falciparum)
# Construct: The DNA of full-length PfFNT from Plasmodium falciparum 3D7 was cloned as a C-terminal GFP fusion; expressed in transfected cells; intact cells for imaging, LMNG-solubilized membranes or lysates for FCCS
# assay-procedure: FCCS equilibrium saturation binding to solubilized PfFNT wildtype
The following compounds are shown together with reported pKd values.
Remember the convention: pKd equals -log10 of concentration in molar.

Some entries whose results are on file:
CCN1/C(=C/C=C/C=C/C2=[N+](CC)c3ccc(S(=O)(=O)O)cc3C2(C)CCCC(=O)NCCOCCOCCOCCOCCC(=O)NCCCOc2ccc(C(=O)/C=C(\O)C(F)(F)C(F)(F)F)cc2)C(C)(C)c2cc(S(=O)(=O)[O-])ccc21 (stereo not drawn) : 7.17
CCN1/C(=C/C=C/C=C/C2=[N+](CC)c3ccc(S(=O)(=O)O)cc3C2(C)CCCC(=O)NCCOCCOCCOCCOCCC(=O)NCCCOc2ccc(C(=O)/C=C(\O)C(F)(F)C(F)(F)F)cn2)C(C)(C)c2cc(S(=O)(=O)[O-])ccc21 (stereo not drawn) : 7.14

Record `O=C(C=C(O)C(F)(F)C(F)(F)F)c1ccc(O)cc1` , field pKd: 7.17

----------
# subject-of-test: PfFNT-GFP (Plasmodium falciparum, UniProt O77389)
# Construct: The DNA of full-length PfFNT from Plasmodium falciparum 3D7 was cloned as a C-terminal GFP fusion; intact cells for imaging, LMNG-solubilized membranes or lysates for FCCS
# Sequence (O77389 whole entry, the tested form may be a part): as the sequence (O77389 whole entry, the tested form may be a part) above
# assay-procedure: FCCS loss of signal screening competition assay
# Description: With a loss of signal screening assay using the GFP fusion of PfFNT wildtype and BH296-DY647 as the interaction pair, we set out to test the FCCS approach on a selection of 26 compounds that were validated before using functional lactate transport assays in yeast. […] The wells were then analyzed by FCCS, Ki values were determined, and compared by a scatter plot to the IC50 values from the previous functional assays in yeast (Figure 6). […]
readout-name: Ki

// field: Ki; key: `O=C(/C=C(\O)C(F)(F)C(F)(F)F)c1ccc(C(=O)/C=C(\O)C(F)(F)C(F)(F)F)cc1` ; value = < 100 nM

----------
# subject-of-test: PfFNT G107S-GFP (Plasmodium falciparum, UniProt O77389, G107S)
# Construct: The DNA of full-length PfFNT from Plasmodium falciparum 3D7 was cloned as a C-terminal GFP fusion; expressed in transfected cells; intact cells for imaging, LMNG-solubilized membranes for FCCS
# assay-procedure: FCCS equilibrium competition binding, PfFNT G107S mutant
# measurement-context: fluorescent probe BH267.meta-DY647 150 nM, competitor up to 10 µM; read-out: Ki Competitor
# From the text: Figure 4 Affinity determination of BH296, BH267.meta to PfFNT and PfFNT G107S, and equilibrium saturation binding of BH296 and BH267.meta to PfFNT and PfFNT G107S. […] BH267.meta bound to 100% of the GFP-fusions of wildtype PfFNT. […] The Ki values calculated for the interaction of BH296 and BH267.meta to mutant PfFNT G107S confirm the affinities observed for the direct interaction with labeled inhibitors. […]
readout-name: Ki
# number then unit; no other words

// field: Ki; key: `O=C(/C=C(\O)C(F)(F)C(F)(F)F)c1cccnc1` ; value = 417 nM
